# Ki against UniProt:Q04609, merged from multiple literature sources
MEASUREMENT TYPE: Ki (nM)

MOLECULE	SYSTEM	Ki [nM]
COc1ccc(NCP(=O)(O)CC(CCC(=O)O)C(=O)O)cc1 (stereo not drawn)	UniProt:Q04609	2
O=C(O)c1ccc(C(=O)c2ccc(Oc3ccc(C(=O)O)c(C(=O)O)c3)cc2)c(C(=O)O)c1	UniProt:Q04609	1170
O=C(O)CC[C@H](NC(=O)N[C@@H](Cc1ccc(Nc2nc(-c3ccc(-n4cc(CCCF)nn4)cc3)cs2)cc1)C(=O)O)C(=O)O	UniProt:Q04609	28
CN(C(=O)N[C@@H](CCC(=O)O)C(=O)O)[C@@H](CCCCNC(=O)c1ccc(N=[N+]=[N-])cc1)C(=O)O	UniProt:Q04609	12.5

[a] CN(C(=O)N[C@@H](CCC(=O)O)C(=O)O)[C@@H](CCCCNC(=O)c1ccc(F)nc1)C(=O)O
[b] O=C(O)CC[C@H](NC(=O)N[C@@H](CCCCNC(=O)CCCn1cc(CCCF)nn1)C(=O)O)C(=O)O
Q: Looking only at measured Ki, which entry is lower, a or b ? Choose, then provide that item's label.
A: b

[a] O=C(O)CC[C@H](NC(=O)N[C@@H](CCc1nc(-c2ccc([N+](=O)[O-])cc2)co1)C(=O)O)C(=O)O
[b] CCCCP(=O)(O)CC(CCC(=O)O)C(=O)O (stereo not drawn)
Q: Param pair: a , b . Output: the one whose Ki is numerically greater. When you have decided, please share the label of that item.
A: b

[I] O=C(O)CC[C@H](NC(=O)N[C@@H](CCCCNc1cc(OCc2cn(CCF)nn2)ccc1[N+](=O)[O-])C(=O)O)C(=O)O
[II] Cc1ccc(CP(=O)(O)CC(CCC(=O)O)C(=O)O)cc1 (stereo not drawn)
[III] O=C(O)CC[C@H](NC(=O)N[C@@H](CC1CCN(C(=O)c2cc(C(=O)N3CCC(C[C@H](NC(=O)N[C@@H](CCC(=O)O)C(=O)O)C(=O)O)CC3)cc(-n3cc(CCCF)nn3)c2)CC1)C(=O)O)C(=O)O
[IV] CC(C)(C)OC(=O)CCC(CP(=O)(CC(CCC(=O)O)C(=O)O)OC(C)(C)C)C(=O)OC(C)(C)C (stereo not drawn)
[V] CN(C(=O)N[C@@H](CCC(=O)O)C(=O)O)[C@@H](CCCCNC(=O)c1ccc(F)cc1)C(=O)O
Q: Order field: Ki | Direction: descending (largest first) Sort the labels as requested; that list is your answer.
A: IV, V, II, III, I
(IV: 4250 nM, V: 219 nM, II: 68 nM, III: 2.5 nM, I: 0.07 nM)

----------
Kindly find below pKi information for Glutamate carboxypeptidase 2 (Homo sapiens) taken from the literature.
pKi: −log10 of the molar value.
MEASUREMENT TYPE: pKi

>>> df
                                   compound                                    system  measured_number
0  O=C(O)CC[C@H](NC(=O)N[C@@H](CCCCNc1nc(-c2cccc(NC(=O)CCOCCOCCOCCOCCNC(=O)Cn3cc(CCCF)nn3)c2)cs1)C(=O)O)C(=O)O  Glutamate carboxypeptidase 2 (Homo sapiens)             9.40
1          O=C(Cc1cc(C(=O)O)cc(C(=O)O)c1)NO  Glutamate carboxypeptidase 2 (Homo sapiens)             4.92
2  O=C(O)CC[C@H](NC(=O)N[C@@H](CCCCn1c(=O)[nH]c2ccc(OCc3cn(CCF)nn3)cc21)C(=O)O)C(=O)O  Glutamate carboxypeptidase 2 (Homo sapiens)             9.20
3  O=C(O)CCC(CP(=O)(O)CCCc1ccccc1)C(=O)O (stereo not drawn)  Glutamate carboxypeptidase 2 (Homo sapiens)             6.63
4  O=C(O)CCC(CP(=O)(O)CNCc1ccccc1)C(=O)O (stereo not drawn)  Glutamate carboxypeptidase 2 (Homo sapiens)             7.28
5  CN(C(=O)N[C@@H](CCCCNC(=O)OCc1ccccc1)C(=O)O)[C@@H](CCC(=O)O)C(=O)O  Glutamate carboxypeptidase 2 (Homo sapiens)             7.43
6  O=C(O)CCC(CP(=O)(O)CNC(=O)Nc1ccccc1)C(=O)O (stereo not drawn)  Glutamate carboxypeptidase 2 (Homo sapiens)             7.12
7  O=C(O)CCC(CP(=O)(O)Cc1ccc(F)cc1)C(=O)O (stereo not drawn)  Glutamate carboxypeptidase 2 (Homo sapiens)             7.15
8             O=C(O)c1cc(OCCCS)cc(C(=O)O)c1  Glutamate carboxypeptidase 2 (Homo sapiens)             5.48
9  O=C(O)CCC(CP(=O)(O)CC(CCC(=O)O)C(=O)O)C(=O)O (stereo not drawn)  Glutamate carboxypeptidase 2 (Homo sapiens)             9.22

[a] O=C(O)CCC(CP(=O)(O)CCC(=O)O)C(=O)O (stereo not drawn)
[b] CN(C(=O)N[C@@H](CCC(=O)O)C(=O)O)[C@@H](CCCCNC(=O)OCc1ccccc1)C(=O)O
[c] O=C(O)CC[C@H](NC(=O)N[C@@H](CCCCNC(=O)OCc1ccccc1)C(=O)O)C(=O)O
[d] O=C(O)CC[C@H](NC(=O)N[C@@H](CCCCNc1cc(OCCOCCOCCn2cc(CCCF)nn2)ccc1[N+](=O)[O-])C(=O)O)C(=O)O
Q: Exam item: list the entries in increasing order of pKi. Note for the reader: the ranking is given by listing the labels in the order requested.
A: b, a, c, d
